B1: FBF1 (parent)
chain: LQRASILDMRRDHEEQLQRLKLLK

- Variants of: B1
- testName: protein stability index of a GFP-peptide fusion (GPS, HEK-293T) (PSI 1-6); higher = more stable;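 further: lentivirally expressed fusions sorted by FACS into six bins by GFP to DsRed ratio, PSI derived from sequencing read proportions per bin multiplied by bin number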
- condition: c terminus: a fixed tail appended
Output Met for protein stability index not less than 3; output Not met otherwise.

{"sequenceChange": "Q16N", "category": "Met"}
{"sequenceChange": "D12L", "category": "Not met"}
{"sequenceChange": "M9N", "category": "Met"}
{"sequenceChange": "H13G", "category": "Met"}
{"sequenceChange": "E14H", "category": "Met"}
{"sequenceChange": "L22Q", "category": "Met"}
{"sequenceChange": "D8L", "category": "Not met"}
{"sequenceChange": "L7C", "category": "Met"}
{"sequenceChange": "R19K", "category": "Met"}
{"sequenceChange": "L22I", "category": "Met"}
{"sequenceChange": "A4F", "category": "Not met"}

Hey, just so you know, these numbers are from the supplement of paper PMC10567573.
